TARGET_DESC: full-length beta-Catenin (Uniprot ID P35222) (Homo sapiens (Human)) (UniProt P35222)
Sequence (P35222 2-781 limits assumed): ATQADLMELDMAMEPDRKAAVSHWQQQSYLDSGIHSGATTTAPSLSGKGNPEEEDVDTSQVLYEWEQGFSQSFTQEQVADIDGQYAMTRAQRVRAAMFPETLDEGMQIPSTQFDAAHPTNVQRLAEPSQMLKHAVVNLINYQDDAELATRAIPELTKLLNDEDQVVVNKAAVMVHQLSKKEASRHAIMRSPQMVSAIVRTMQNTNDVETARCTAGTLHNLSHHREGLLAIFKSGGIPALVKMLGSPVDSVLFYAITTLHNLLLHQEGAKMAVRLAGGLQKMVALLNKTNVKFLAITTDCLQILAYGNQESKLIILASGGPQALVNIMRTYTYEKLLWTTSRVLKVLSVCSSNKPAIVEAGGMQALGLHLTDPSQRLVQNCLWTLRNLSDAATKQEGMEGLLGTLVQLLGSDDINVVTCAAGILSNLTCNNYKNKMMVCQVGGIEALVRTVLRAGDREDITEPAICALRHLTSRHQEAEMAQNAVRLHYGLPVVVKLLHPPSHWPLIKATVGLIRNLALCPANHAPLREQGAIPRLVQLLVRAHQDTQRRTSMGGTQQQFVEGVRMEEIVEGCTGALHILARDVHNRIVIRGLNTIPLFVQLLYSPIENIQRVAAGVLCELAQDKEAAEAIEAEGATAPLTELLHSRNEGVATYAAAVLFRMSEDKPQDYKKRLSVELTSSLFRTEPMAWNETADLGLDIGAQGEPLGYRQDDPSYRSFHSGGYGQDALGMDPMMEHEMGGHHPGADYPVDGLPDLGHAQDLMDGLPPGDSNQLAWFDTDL
ASSAY_REMARKS: fluorescence polarization competition, peptide titrated against full-length beta-catenin + 5FAM-TCF4(10-53)
Starred links: 1 amine or outer side, 2 acyl side, 3 side chain; linkers in the order of their positions; H or OH if unused. Positions of bridges follow the written chain, without caps; N, C: chain ends. Non-standard residues stand in square brackets, D forms with d. Primed or numbered codes have the meaning given here. PyrS2″ = (S)-3-amino-1-((pent-4-en-1-yloxy)carbonyl)pyrrolidine-3-carboxylic acid (stapling residue), C=CCCCOC(=O)N1CC[C@@](N[*:1])(C(=O)[*:2])C1; B5(4) = 2,2-bis(4-pentenyl)glycine = 2-amino-2-(pent-4-en-1-yl)hept-6-enoic acid (stitching residue), C=CCCCC(CCCC=C)(N[*:1])C(=O)[*:2]; B5 = 2-amino-2-(pent-4-en-1-yl)hept-6-enoic acid, C=CCCCC(CCCC=C)(N[*:1])C(=O)[*:2]; Ala(4-thiazolyl) = N[C@@H](Cc1cscn1)C(=O)O; Bta = N[C@@H](Cc1csc2ccccc12)C(=O)O; αAllylPro = C=CC[C@@]1(C(=O)O)CCCN1; tBuAla = CC(C)(C)C[C@H](N)C(=O)O; 3Thi = N[C@@H](Cc1ccsc1)C(=O)O
REPORTED_METRIC: EC50

binder="Ac-[αAllylPro]D[tBuAla][B5]DDAAFN[PyrS2″][3Thi][Bta][dN]-NH2 (staple 1-4, 4-11) [I-818]" observed_result="6 nM"
binder="Ac-[αAllylPro]D[tBuAla][B5(4)]DDAAFF[PyrS2″][3Thi][Bta]H-NH2 (staple 1-4, 4-11) [I-808]" observed_result="5 nM"
binder="Ac-[αAllylPro]D[tBuAla][B5]DDAAFN[PyrS2″][3Thi][Bta]T-NH2 (staple 1-4, 4-11) [I-814]" observed_result="7 nM"
binder="Ac-[αAllylPro]D[tBuAla][B5]DDAAFN[PyrS2″][3Thi][Bta]N-NH2 (staple 1-4, 4-11) [I-816]" observed_result="5 nM"
binder="Ac-[αAllylPro]D[tBuAla][B5(4)]DDAA[Ala(4-thiazolyl)]N[PyrS2″][3Thi][Bta]Q-NH2 (staple 1-4, 4-11) [I-812]" observed_result="33 nM"
